# Test system: Candida krusei CCM 8271 (ATCC 6258)
# measurementDescription: Antifungal microdilution broth (EUCAST)
# Assay type: cell-based
# experimentalParameters: Pichia kudriavzevii; 24h incubation; read-out: MIC Candida krusei
valueType: MIC

Hey, Candida krusei CCM 8271 (ATCC 6258) data for Cc1cnc(C(=O)Nc2ccc3c(c2)B(O)OC3)cn1 [Compound 2] : MIC came out at > 500 µM

Hey, Candida krusei CCM 8271 (ATCC 6258) data for O=C(Nc1ccc2c(c1)B(O)OC2)c1cnc(Cl)cn1 [Compound 5] : MIC came out at > 500 µM

Hey, Candida krusei CCM 8271 (ATCC 6258) data for O=C(Nc1ccc2c(c1)B(O)OC2)c1nc2ccccc2[nH]c1=O [Compound 18] : MIC came out at > 125 µM

Hey, Candida krusei CCM 8271 (ATCC 6258) data for O=C(Nc1ccc2c(c1)B(O)OC2)c1cnc2ccccc2n1 [Compound 17] : MIC came out at > 500 µM

Hey, Candida krusei CCM 8271 (ATCC 6258) data for O=C(Nc1ccc2c(c1)B(O)OC2)c1ccc(Cl)cc1 [Compound 14] : MIC came out at > 125 µM

Hey, Candida krusei CCM 8271 (ATCC 6258) data for O=C(Nc1ccc2c(c1)B(O)OC2)c1cscn1 [Compound 16] : MIC came out at > 500 µM

Hey, Candida krusei CCM 8271 (ATCC 6258) data for O=C(Nc1ccc2c(c1)B(O)OC2)c1cnccn1 [Compound 1] : MIC came out at > 500 µM

Hey, Candida krusei CCM 8271 (ATCC 6258) data for O=C(Nc1ccc2c(c1)B(O)OC2)c1ccc(Cl)s1 [Compound 15] : MIC came out at > 500 µM

Hey, Candida krusei CCM 8271 (ATCC 6258) data for O=C(Nc1ccc2c(c1)B(O)OC2)c1ccc(C(F)(F)F)nc1 [Compound 12] : MIC came out at > 500 µM

Hey, Candida krusei CCM 8271 (ATCC 6258) data for O=C(Nc1ccc2c(c1)B(O)OC2)c1ncc[nH]c1=O [Compound 8] : MIC came out at > 500 µM

---

Assignment: determine reported MIC for the given compounds.
# System: Candida krusei CCM 8271 (ATCC 6258)
# measurementDescription: Antifungal microdilution broth (EUCAST)
# Assay type: cell-based
# experimentalParameters: Pichia kudriavzevii; 48h incubation; read-out: MIC Candida krusei

// MIC value for O=C(Nc1ccc2c(c1)B(O)OC2)c1ccccn1 : > 500 µM

// MIC value for O=C(Nc1ccc2c(c1)B(O)OC2)c1ccc(Cl)cc1 : > 125 µM

// MIC value for O=C(Nc1ccc2c(c1)B(O)OC2)c1ccc(Cl)s1 : > 500 µM

// MIC value for O=C(Nc1ccc2c(c1)B(O)OC2)c1cnccn1 : > 500 µM

// MIC value for O=C(Nc1ccc2c(c1)B(O)OC2)c1cscn1 : > 500 µM

// MIC value for O=C(Nc1ccc2c(c1)B(O)OC2)c1ncc[nH]c1=O : > 500 µM

// MIC value for O=C(Nc1ccc2c(c1)B(O)OC2)c1ccc(O)nc1 : > 500 µM

// MIC value for O=C(Nc1ccc2c(c1)B(O)OC2)c1cnc(Cl)cn1 : > 500 µM

// MIC value for O=C(Nc1ccc2c(c1)B(O)OC2)c1cnc2ccccc2n1 : > 500 µM

// MIC value for O=C(Nc1ccc2c(c1)B(O)OC2)c1cnc(O)cn1 : > 500 µM

// MIC value for O=C(Nc1ccc2c(c1)B(O)OC2)c1nc2ccccc2[nH]c1=O : > 125 µM
